- Target: OTR (Homo sapiens, UniProt P30559)
- Sequence (P30559 1-389): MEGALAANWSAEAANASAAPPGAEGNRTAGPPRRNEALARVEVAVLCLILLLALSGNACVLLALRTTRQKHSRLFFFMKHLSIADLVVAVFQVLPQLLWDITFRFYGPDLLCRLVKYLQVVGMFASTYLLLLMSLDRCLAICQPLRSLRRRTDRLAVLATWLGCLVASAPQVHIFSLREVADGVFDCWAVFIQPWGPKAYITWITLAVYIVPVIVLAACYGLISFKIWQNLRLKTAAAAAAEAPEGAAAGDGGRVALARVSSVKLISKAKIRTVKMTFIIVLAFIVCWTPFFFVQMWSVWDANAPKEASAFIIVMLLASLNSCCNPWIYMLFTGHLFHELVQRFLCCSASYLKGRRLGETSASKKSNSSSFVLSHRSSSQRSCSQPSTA
- Assay summary: Modulation of oxytocin-evoked intracellular IP1 and Ca2+ increase: OT dose-response in presence and absence of 10 μM compound
- Conditions used: OT potency with 10 μM compound relative to OT only; Table 7 group
Property label: Relative Potency

Any idea what Relative Potency was measured for "COc1ccc(C(=O)n2c3ccccc3c3c2cnn3C)cc1" ?
2.1

Ok, now "CCCCC(=O)n1c2ccccc2c2c1cnn2C"
2.6

Ok, now "Cn1ncc2c1c1ccccc1n2C(=O)c1ccc(F)cc1"
2.5

Ok, now "Cn1ncc2c1c1ccccc1n2C(=O)C1CCOCC1"
2.6
